biological target: C277T (SEQ ID NO: 437) (Thermotoga maritima, UniProt Q9WXT2, C277T); construct: made in house; host or cells: E. coli; type: biochemical; settings: 100 mM ester, 60 mM H2O2, 40 ppm enzyme, 95 mM phosphate pH 7.2, 37° C.
Sequence (Q9WXT2 whole entry C277T): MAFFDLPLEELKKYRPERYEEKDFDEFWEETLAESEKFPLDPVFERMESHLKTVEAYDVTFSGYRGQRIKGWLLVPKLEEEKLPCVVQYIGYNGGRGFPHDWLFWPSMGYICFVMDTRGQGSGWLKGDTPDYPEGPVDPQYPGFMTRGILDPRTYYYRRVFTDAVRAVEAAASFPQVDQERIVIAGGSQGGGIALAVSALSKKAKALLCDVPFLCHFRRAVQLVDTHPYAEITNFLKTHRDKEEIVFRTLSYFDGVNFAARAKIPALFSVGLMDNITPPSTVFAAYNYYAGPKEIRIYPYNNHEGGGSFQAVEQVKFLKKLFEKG
Mark true for Maximum Peracetic Acid (PAA) (ppm), C277T (SEQ ID NO: 437) under 1000 ppm, false if at or over.

[ask] Please check: Maximum Peracetic Acid (PAA) (ppm), C277T (SEQ ID NO: 437) for CC(=O)Oc1ccc(C(=O)O)cc1 [4-acetoxybenzoic acid] , strictly under 1000 ppm or not?
[reply] true

[ask] Please check: Maximum Peracetic Acid (PAA) (ppm), C277T (SEQ ID NO: 437) for CC(=O)OCCOCCOC(C)=O [Diethylene glycol diacetate] , strictly under 1000 ppm or not?
[reply] true

[ask] Please check: Maximum Peracetic Acid (PAA) (ppm), C277T (SEQ ID NO: 437) for CC(=O)OC[C@H](OC(C)=O)[C@@H](OC(C)=O)[C@H](OC(C)=O)[C@@H](COC(C)=O)OC(C)=O [Sorbitol hexaacetate] , strictly under 1000 ppm or not?
[reply] true

[ask] Please check: Maximum Peracetic Acid (PAA) (ppm), C277T (SEQ ID NO: 437) for CC(=O)OC[C@H]1O[C@@](COC(C)=O)(O[C@H]2O[C@H](COC(C)=O)[C@@H](OC(C)=O)[C@H](OC(C)=O)[C@H]2OC(C)=O)[C@@H](OC(C)=O)[C@@H]1OC(C)=O [Sucrose octaacetate] , strictly under 1000 ppm or not?
[reply] true

[ask] Please check: Maximum Peracetic Acid (PAA) (ppm), C277T (SEQ ID NO: 437) for CC(=O)OC[C@H]1O[C@@H](S)[C@H](OC(C)=O)[C@@H](OC(C)=O)[C@@H]1OC(C)=O [1-thio-β-D glucose-2,3,4,6-tetraacetate] , strictly under 1000 ppm or not?
[reply] true

[ask] Please check: Maximum Peracetic Acid (PAA) (ppm), C277T (SEQ ID NO: 437) for CC(=O)OCC(O)COC(C)=O [Diacetin] , strictly under 1000 ppm or not?
[reply] false

[ask] Please check: Maximum Peracetic Acid (PAA) (ppm), C277T (SEQ ID NO: 437) for CC(=O)OC[C@H]1O[C@@H](OC(C)=O)[C@H](OC(C)=O)[C@H]1OC(C)=O [β-D-xylofuranose tetraacetate] , strictly under 1000 ppm or not?
[reply] false

[ask] Please check: Maximum Peracetic Acid (PAA) (ppm), C277T (SEQ ID NO: 437) for CC(=O)OCC(COC(C)=O)OC(C)=O [Triacetin] , strictly under 1000 ppm or not?
[reply] false

[ask] Please check: Maximum Peracetic Acid (PAA) (ppm), C277T (SEQ ID NO: 437) for CO[C@@H]1OC[C@@H](OC(C)=O)[C@H](OC(C)=O)[C@H]1OC(C)=O [β-methyl xyloside triacetin] , strictly under 1000 ppm or not?
[reply] false

[ask] Please check: Maximum Peracetic Acid (PAA) (ppm), C277T (SEQ ID NO: 437) for CC(=O)OC[C@H]1OC=C[C@@H](OC(C)=O)[C@@H]1OC(C)=O [Tri-O-acetyl glucal] , strictly under 1000 ppm or not?
[reply] false

[ask] Please check: Maximum Peracetic Acid (PAA) (ppm), C277T (SEQ ID NO: 437) for `CC(=O)N[C@@H]1[C@@H](OC(C)=O)[C@H](OC(C)=O)[C@@H](COC(C)=O)O[C@@H]1Cl` , strictly under 1000 ppm or not?
[reply] true

[ask] Please check: Maximum Peracetic Acid (PAA) (ppm), C277T (SEQ ID NO: 437) for CC(=O)OCc1ccc(C=O)o1 [5-acetoxymethyl-2-furaldehyde] , strictly under 1000 ppm or not?
[reply] false

[ask] Please check: Maximum Peracetic Acid (PAA) (ppm), C277T (SEQ ID NO: 437) for CC(=O)OCCCCCOC(C)=O [1,5-pentanediol diacetate] , strictly under 1000 ppm or not?
[reply] true

[ask] Please check: Maximum Peracetic Acid (PAA) (ppm), C277T (SEQ ID NO: 437) for CC(=O)OC[C@H]1O[C@@H](OC(C)=O)[C@H](OC(C)=O)[C@@H](OC(C)=O)[C@@H]1OC(C)=O [β-D-glucose pentaacetate] , strictly under 1000 ppm or not?
[reply] false

[ask] Please check: Maximum Peracetic Acid (PAA) (ppm), C277T (SEQ ID NO: 437) for CC(=O)OC[C@H]1OC(OC(C)=O)[C@@H](O)[C@@H](OC(C)=O)[C@@H]1OC(C)=O (stereo partly shown) [1,3,4,6-tetra-O-acetyl-mannopyranose] , strictly under 1000 ppm or not?
[reply] false

[ask] Please check: Maximum Peracetic Acid (PAA) (ppm), C277T (SEQ ID NO: 437) for CC(=O)OC1OC[C@@H](OC(C)=O)[C@@H](OC(C)=O)[C@H]1OC(C)=O (stereo partly shown) [1,2,3,4-tetra-O-acetyl-ribopyranose] , strictly under 1000 ppm or not?
[reply] false

[ask] Please check: Maximum Peracetic Acid (PAA) (ppm), C277T (SEQ ID NO: 437) for CC(=O)O[C@@H]1O[C@H](CO)[C@@H](OC(C)=O)[C@H](OC(C)=O)[C@H]1OC(C)=O [β-D-glucopyranose,1,2,3,4-tetraacetate] , strictly under 1000 ppm or not?
[reply] false

[ask] Please check: Maximum Peracetic Acid (PAA) (ppm), C277T (SEQ ID NO: 437) for CC(=O)OCCOC(C)=O [Ethylene glycol diacetate] , strictly under 1000 ppm or not?
[reply] false

[ask] Please check: Maximum Peracetic Acid (PAA) (ppm), C277T (SEQ ID NO: 437) for CC(=O)OC[C@H]1O[C@H](OC(C)=O)[C@H](OC(C)=O)[C@@H](OC(C)=O)[C@@H]1OC(C)=O [α-D-glucose pentaacetate] , strictly under 1000 ppm or not?
[reply] false

[ask] Please check: Maximum Peracetic Acid (PAA) (ppm), C277T (SEQ ID NO: 437) for CC(=O)OC[C@H]1O[C@H](OC(C)=O)[C@@H](OC(C)=O)[C@@H](OC(C)=O)[C@@H]1OC(C)=O [α-D-mannopyranose pentaacetate] , strictly under 1000 ppm or not?
[reply] false

[ask] Please check: Maximum Peracetic Acid (PAA) (ppm), C277T (SEQ ID NO: 437) for CC(=O)OC[C@H]1OC(OC(C)=O)[C@H](OC(C)=O)[C@@H]1OC(C)=O (stereo partly shown) [1,2,3,5-tetra-O-acetyl-ribofuranose] , strictly under 1000 ppm or not?
[reply] false

[ask] Please check: Maximum Peracetic Acid (PAA) (ppm), C277T (SEQ ID NO: 437) for COCC(C)OC(C)=O (stereo not shown) [Propylene glycol methyl ether acetate] , strictly under 1000 ppm or not?
[reply] true

[ask] Please check: Maximum Peracetic Acid (PAA) (ppm), C277T (SEQ ID NO: 437) for C=CC(COC(C)=O)OC(C)=O (stereo not shown) [3,4-diacetoxy-1-butene] , strictly under 1000 ppm or not?
[reply] false

[ask] Please check: Maximum Peracetic Acid (PAA) (ppm), C277T (SEQ ID NO: 437) for CC(=O)OCC(C)OC(C)=O (stereo not shown) [Propylene glycol diacetate] , strictly under 1000 ppm or not?
[reply] false

[ask] Please check: Maximum Peracetic Acid (PAA) (ppm), C277T (SEQ ID NO: 437) for CC(=O)OC[C@H]1O[C@@H](OC(C)=O)[C@H](OC(C)=O)[C@@H](OC(C)=O)[C@H]1OC(C)=O [β-D-galactose pentaacetate] , strictly under 1000 ppm or not?
[reply] false
